# System: SH-4 (Melanoma)
# MEASUREMENT PROTOCOL: combination Emax (second highest fraction inhibited in the dose matrix, 72 h); higher = more inhibition; extreme values may be limits of the assay
# key: entry, value: combination Emax
READOUT NAME: combination Emax

1) CN(CCO)CC[C@H](CSc1ccccc1)Nc1ccc(S(=O)(=O)NC(=O)c2ccc(N3CCC([C@@H](O)c4ccccc4-c4ccc(Cl)cc4)CC3)cc2)cc1S(=O)(=O)C(F)(F)F [AZD4320] + Cc1cc2ncnn2cc1Nc1ncc2c(n1)n(C1CCOCC1)c(=O)n2C [AZD7648] (first compound max 1 µM, 7x7, partner max 10 µM) :: 0.16
2) Cn1cnc2c(F)c(Nc3ccc(Br)cc3Cl)c(C(=O)NOCCO)cc21 [Selumetinib] + C[C@@H]1COCCN1C2=NC(=NC(=C2)C3(CC3)[S@](=N)(=O)C)C4=C5C=CNC5=NC=C4 [AZD6738] (first compound max 10 µM, 7x7, partner max 10 µM) :: 0.91
3) COc1cccc(OCCCN)c1-c1cc(Nc2cnc(C#N)cn2)n[nH]1 [Prexasertib] + CN(C)CCCOc1ccc(-c2ccc3ncc4c(c3c2)n(C2CCOCC2)c(=O)n4C)cn1 [AZD0156] (first compound max 1 µM, 7x7, partner max 1 µM) :: 0.807
4) COc1cccc(OCCCN)c1-c1cc(Nc2cnc(C#N)cn2)n[nH]1 [Prexasertib] + O=C(c1cc(Cc2n[nH]c(=O)c3ccccc23)ccc1F)N1CCN(C(=O)C2CC2)CC1 [Olaparib] (first compound max 1 µM, 7x7, partner max 10 µM) :: 0.611
5) O=C(c1cc(Cc2n[nH]c(=O)c3ccccc23)ccc1F)N1CCN(C(=O)C2CC2)CC1 [Olaparib] + CC1(C)CCC(CN2CCN(c3ccc(C(=O)NS(=O)(=O)c4ccc(NCC5CCOCC5)c([N+](=O)[O-])c4)c(Oc4cnc5[nH]ccc5c4)c3)CC2)=C(c2ccc(Cl)cc2)C1 [Venetoclax] (first compound max 10 µM, 7x7, partner max 1 µM) :: 0.148
6) O=C(c1cc(Cc2n[nH]c(=O)c3ccccc23)ccc1F)N1CCN(C(=O)C2CC2)CC1 [Olaparib] + COc1nnc2ccc(N3CCC(c4ccc(OCCN5CCN(C)C(=O)[C@H]5C)cc4)CC3)nn12 [AZD5153] (first compound max 10 µM, 7x7, partner max 1 µM) :: 0.514

* * *

Listed here are molecules together with their documented combination Emax.
# System: HO-1-u-1 (Oral Cavity Carcinoma)
# MEASUREMENT PROTOCOL: combination Emax (second highest fraction inhibited in the dose matrix, 72 h); higher = more inhibition; extreme values may be limits of the assay
READOUT NAME: combination Emax

1. NC1(C(=O)N[C@@H](CCO)c2ccc(Cl)cc2)CCN(c2ncnc3[nH]ccc23)CC1 [Capivasertib] + CC(C)n1c(=O)n(C)c2cnc3cc(F)c(-c4ccc(OCCCN5CCCCC5)nc4)cc3c21 [AZD1390] (first compound max 10 µM, 7x7, partner max 0.3 µM) :: 0.746
2. Cn1cnc2c(F)c(Nc3ccc(Br)cc3Cl)c(C(=O)NOCCO)cc21 [Selumetinib] + C[C@@H]1COCCN1C2=NC(=NC(=C2)C3(CC3)[S@](=N)(=O)C)C4=C5C=CNC5=NC=C4 [AZD6738] (first compound max 10 µM, 7x7, partner max 10 µM) :: 0.718
3. CN(CCO)CC[C@H](CSc1ccccc1)Nc1ccc(S(=O)(=O)NC(=O)c2ccc(N3CCC([C@@H](O)c4ccccc4-c4ccc(Cl)cc4)CC3)cc2)cc1S(=O)(=O)C(F)(F)F [AZD4320] + Cc1cc2ncnn2cc1Nc1ncc2c(n1)n(C1CCOCC1)c(=O)n2C [AZD7648] (first compound max 1 µM, 7x7, partner max 10 µM) :: 0.325

* * *

# Test system: 8305C (Thyroid Gland Carcinoma)
# MEASUREMENT PROTOCOL: combination Emax (second highest fraction inhibited in the dose matrix, 72 h); higher = more inhibition; extreme values may be limits of the assay
READOUT NAME: combination Emax

1) Cc1nc(Nc2ncc(C(=O)Nc3c(C)cccc3Cl)s2)cc(N2CCN(CCO)CC2)n1 [Dasatinib] + CC(=O)Nc1cccc(-n2c(=O)n(C3CC3)c(=O)c3c(Nc4ccc(I)cc4F)n(C)c(=O)c(C)c32)c1 [Trametinib] (first compound max 2 µM, 7x7, partner max 1 µM) :: 0.763
2) O=C(c1cc(Cc2n[nH]c(=O)c3ccccc23)ccc1F)N1CCN(C(=O)C2CC2)CC1 [Olaparib] + COc1nnc2ccc(N3CCC(c4ccc(OCCN5CCN(C)C(=O)[C@H]5C)cc4)CC3)nn12 [AZD5153] (first compound max 10 µM, 7x7, partner max 1 µM) :: 0.495

* * *

# Test system: RPMI-6666 (Non-Cancerous)
# MEASUREMENT PROTOCOL: combination Emax (second highest fraction inhibited in the dose matrix, 72 h); higher = more inhibition; extreme values may be limits of the assay
Label YES when combination Emax >= 0.8; otherwise NO.

1) C=CCn1c(=O)c2cnc(Nc3ccc(N4CCN(C)CC4)cc3)nc2n1-c1cccc(C(C)(C)O)n1 [AZD1775] + CCc1c2c(nc3ccc(O)cc13)-c1cc3c(c(=O)n1C2)COC(=O)[C@]3(O)CC [SN-38] (first compound max 1 µM, partner max 0.3 µM) :: YES
2) CC1(C)CCC(CN2CCN(c3ccc(C(=O)NS(=O)(=O)c4ccc(NCC5CCOCC5)c([N+](=O)[O-])c4)c(Oc4cnc5[nH]ccc5c4)c3)CC2)=C(c2ccc(Cl)cc2)C1 [Venetoclax] + CCN(CCO)CCCOc1ccc2c(Nc3cc(CC(=O)Nc4cccc(F)c4)[nH]n3)ncnc2c1 [AZD2811] (first compound max 1 µM, 7x7, partner max 1 µM) :: YES
3) NC1(C(=O)N[C@@H](CCO)c2ccc(Cl)cc2)CCN(c2ncnc3[nH]ccc23)CC1 [Capivasertib] + CCN(CCO)CCCOc1ccc2c(Nc3cc(CC(=O)Nc4cccc(F)c4)[nH]n3)ncnc2c1 [AZD2811] (first compound max 10 µM, 7x7, partner max 1 µM) :: NO
4) N#Cc1cnc(Nc2cc(NC[C@H]3CNCCO3)c(C(F)(F)F)cn2)cn1 [SRA737] + O=c1[nH]cc(F)c(=O)[nH]1 [5-Fluorouracil] (first compound max 10 µM, 7x7, partner max 20 µM) :: YES
5) Cc1cc2ncnn2cc1Nc1ncc2c(n1)n(C1CCOCC1)c(=O)n2C [AZD7648] + COc1cc([C@@H]2c3cc4c(cc3[C@@H](O[C@@H]3O[C@@H]5CO[C@@H](C)O[C@H]5[C@H](O)[C@H]3O)[C@H]3COC(=O)[C@H]23)OCO4)cc(OC)c1O [Etoposide] (first compound max 10 µM, 7x7, partner max 10 µM) :: YES
6) Cn1cnc2c(F)c(Nc3ccc(Br)cc3Cl)c(C(=O)NOCCO)cc21 [Selumetinib] + CC(C)n1c(=O)n(C)c2cnc3cc(F)c(-c4ccc(OCCCN5CCCCC5)nc4)cc3c21 [AZD1390] (first compound max 10 µM, 7x7, partner max 0.3 µM) :: NO

* * *

# System: KYSE-410 (Esophageal Squamous Cell Carcinoma);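 also: after 72 h of two-drug dosing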
# MEASUREMENT PROTOCOL: Bliss excess, mean over the matrix (fraction); higher = more synergy
READOUT NAME: Bliss excess

1. COc1cc2ncnc(Nc3ccc(F)c(Cl)c3)c2cc1OCCCN1CCOCC1 [Gefitinib] + CC(C)n1c(=O)n(C)c2cnc3cc(F)c(-c4ccc(OCCCN5CCCCC5)nc4)cc3c21 [AZD1390] (first compound max 10 µM, 7x7, partner max 0.3 µM) :: -0.0779
2. Cc1nc(Nc2ncc(C(=O)Nc3c(C)cccc3Cl)s2)cc(N2CCN(CCO)CC2)n1 [Dasatinib] + CC(=O)Nc1cccc(-n2c(=O)n(C3CC3)c(=O)c3c(Nc4ccc(I)cc4F)n(C)c(=O)c(C)c32)c1 [Trametinib] (first compound max 2 µM, 7x7, partner max 1 µM) :: -0.0622
3. CC1(C)CCC(CN2CCN(c3ccc(C(=O)NS(=O)(=O)c4ccc(NCC5CCOCC5)c([N+](=O)[O-])c4)c(Oc4cnc5[nH]ccc5c4)c3)CC2)=C(c2ccc(Cl)cc2)C1 [Venetoclax] + Cc1cc2ncnn2cc1Nc1ncc2c(n1)n(C1CCOCC1)c(=O)n2C [AZD7648] (first compound max 1 µM, 7x7, partner max 10 µM) :: -0.0471

* * *

# Test system: LB771-HNC (Head and Neck Carcinoma)
# MEASUREMENT PROTOCOL: combination Emax (second highest fraction inhibited in the dose matrix, 72 h); higher = more inhibition; extreme values may be limits of the assay
READOUT NAME: combination Emax

1) NC1(C(=O)N[C@@H](CCO)c2ccc(Cl)cc2)CCN(c2ncnc3[nH]ccc23)CC1 [Capivasertib] + COc1nnc2ccc(N3CCC(c4ccc(OCCN5CCN(C)C(=O)[C@H]5C)cc4)CC3)nn12 [AZD5153] (first compound max 10 µM, 7x7, partner max 1 µM) :: 0.875
2) Cc1c2c(nn1C)CSCc1cc(n(C)n1)CSc1cc(c3ccccc3c1)OCCCc1c(C(=O)O)n(C)c3c-2c(Cl)ccc13 [AZD5991] + Cc1cc2ncnn2cc1Nc1ncc2c(n1)n(C1CCOCC1)c(=O)n2C [AZD7648] (first compound max 1 µM, 7x7, partner max 10 µM) :: 0.571
3) Cn1cnc2c(F)c(Nc3ccc(Br)cc3Cl)c(C(=O)NOCCO)cc21 [Selumetinib] + CCN(CCO)CCCOc1ccc2c(Nc3cc(CC(=O)Nc4cccc(F)c4)[nH]n3)ncnc2c1 [AZD2811] (first compound max 10 µM, 7x7, partner max 1 µM) :: 0.152
4) Cc1cc2ncnn2cc1Nc1ncc2c(n1)n(C1CCOCC1)c(=O)n2C [AZD7648] + CCN(CCO)CCCOc1ccc2c(Nc3cc(CC(=O)Nc4cccc(F)c4)[nH]n3)ncnc2c1 [AZD2811] (first compound max 10 µM, 7x7, partner max 1 µM) :: 0.251
